Measured displacement values are reported for all entries that follow.
# assay_target: Bcl-2-related protein A1 (Mus musculus)
# assay_explanation: displacement of Bid BH3 peptide from Bfl-1 – biochemical, fluorescence polarization, FITC-Bid, mouse, primary screen (AID 432)
# measurement_context: at 20 µM, active compounds read high
Hit rate of the full screen: of about 64,000 compounds, about 15 (0.02%) were called active. The list is a sample of the results. Measured potencies and affinities stand elsewhere.
metric_name: displacement (%)

compound: CCCN1Cc2cccc(C(=O)Nc3ccc4c(c3)OCO4)c2C1=O
recorded_number: -7.1
--
compound: N#Cc1c(NC(=O)CSc2nc(-c3ccco3)cc(C(F)(F)F)n2)sc2c1CCCC2
recorded_number: -0.1
--
compound: COCCNC(=O)Cn1nc(C(F)(F)F)c(Br)c1C
recorded_number: -0.1
--
compound: CCOC(=O)C1CCN(CC(=O)Nc2c(C(=O)OC)[nH]c3ccccc23)CC1
recorded_number: -7
--
compound: COCCCNC(=O)Cn1cc2c(n1)CCCCC2
recorded_number: 5
--
compound: CC(=O)NC1C(=O)N=C(SCC(=O)NCc2ccccc2)NC1=O (stereo unspecified)
recorded_number: 1.1
--
compound: Cc1cc(=O)n2ncnc2n1COCCO
recorded_number: -8.2
--
compound: COc1ccc2c3c(cccc13)OCC2=O
recorded_number: 12.2
--
compound: O=S(=O)(c1ccc(Br)s1)n1cccn1
recorded_number: -3.1
--
compound: CCc1ccccc1NC1=NCC(=O)N1C1CCCCC1
recorded_number: 0.4
--
compound: Cc1nc(NCCN2CCOCC2)c2nnn(Cc3c(F)cccc3Cl)c2n1
recorded_number: -1.3
--
compound: COc1nc(-c2ccccc2)ccc1-c1noc(-c2ccc(F)cc2)n1
recorded_number: -1.8
--
compound: COc1cc(OC)c(C2Oc3nc(SC)nnc3-c3ccccc3N2C(C)=O)cc1OC (stereo unspecified)
recorded_number: 3.4
--
compound: Cc1cccc(-n2c(SCC(=O)N3CCCC3)nnc2-c2ccccn2)c1C
recorded_number: -5.2
--
compound: COc1cc(OC)cc(-c2nc(-c3cc4cc(C)ccc4nc3OC)no2)c1
recorded_number: -2
--
compound: O=C(Nc1c(C(=O)N2CCCCC2)cnn1-c1ccccc1)c1ccccc1
recorded_number: 1.1
--
compound: CN1CCN(C2=C(Cl)C(=O)N(c3cccc(Cl)c3)C2=O)CC1
recorded_number: 32.3
--
compound: Cc1ccc(S(=O)(=O)c2cc3c(=O)n4ccccc4nc3n(CC3CCCO3)c2=N)cc1C (stereo unspecified)
recorded_number: -14.7
--
compound: Cc1nc2ccc(S(=O)(=O)Nc3ccccc3C)cc2s1
recorded_number: -3.4
--
compound: Cc1cc2cc(C(c3nnnn3Cc3ccco3)N3CCc4ccccc43)c(=O)[nH]c2cc1C (stereo unspecified)
recorded_number: 6.1
--
compound: CC1=C(C(N)=O)C(c2cccc(O)c2)n2nc(CCCO)nc2N1 (stereo unspecified)
recorded_number: -2.3
--
compound: O=C(NCc1ccccc1)c1c[nH]c2ccc(S(=O)(=O)Nc3ccc4c(c3)OCCO4)cc2c1=O
recorded_number: -3.6
--
compound: CC(=O)N1CCc2cc(S(=O)(=O)NCCC(=O)N3CCN(c4ccccn4)CC3)ccc21
recorded_number: 0.4
--
compound: Cn1c(=O)[nH]c(=O)c2c1nc(N1CCN(c3ccccc3)CC1)n2CCSc1ncccn1
recorded_number: 4.5
--
compound: Cc1ccc(S(=O)(=O)N(C)CCCC(=O)n2nc(C)cc2C)cc1
recorded_number: 7
--
compound: CNC(=O)c1cc2ccc(OC)cc2oc1=O
recorded_number: -6.1
--
compound: Cc1ccnc(NS(=O)(=O)c2ccc(NC(=O)C3CCCCC3C(=O)O)cc2)n1 (stereo unspecified)
recorded_number: -3.9
--
compound: Cc1c(C(=O)NCc2cccnc2)oc2c1C(=O)CC(C)(C)C2
recorded_number: -2.3
--
compound: CCCCCOc1ccc(/C=c2\sc3ncnn3c2=O)cc1
recorded_number: -9
--
compound: COc1ccc(S(=O)(=O)N[C@@H](CC(C)C)C(=O)O)cc1
recorded_number: -6
--
compound: COc1nc(N(C)C)nc(N(OC)S(=O)(=O)c2ccccc2Cl)n1
recorded_number: 3.7

----------
# assay_target: Bcl-2-related protein A1 (Mus musculus)
# assay_explanation: displacement of Bid BH3 peptide from Bfl-1 – biochemical, fluorescence polarization, FITC-Bid, mouse, primary screen (AID 432)
# measurement_context: at 20 µM, active compounds read high
Hit rate of the full screen: of about 64,000 compounds, about 15 (0.02%) were called active. Only a sample is shown. Results with a measured potency or affinity are listed apart.
metric_name: displacement (%)

compound: CCN(CC)C(=O)CSC1=C(C#N)C(c2cccs2)C=C(C)N1 (stereo not given)
metric_name: displacement
unit_label: %
recorded_number: 4.6
--
compound: CCOC(=O)Cc1nnc(NC(=O)c2cccc(OCC)c2)s1
metric_name: displacement
unit_label: %
recorded_number: -3.8
--
compound: C=CCn1c(C)cc(C(=O)CSc2nnc(NCc3ccccc3)s2)c1C
metric_name: displacement
unit_label: %
recorded_number: 3.3
--
compound: O=C(c1cccc(S(=O)(=O)N2CCCCC2)c1)N1CCOCC1
metric_name: displacement
unit_label: %
recorded_number: -1.1
--
compound: O=C(NC1CCCCNC1=O)c1ccc(Cl)cc1 (stereo not given)
metric_name: displacement
unit_label: %
recorded_number: -4

----------
# assay_target: Bcl-2-related protein A1 (Mus musculus)
# assay_explanation: displacement of Bid BH3 peptide from Bfl-1 – biochemical, fluorescence polarization, FITC-Bid, mouse, primary screen (AID 432)
# measurement_context: at 20 µM, active compounds read high
Among all 64,000 compounds or so, about 15 (0.02%) were called active. A selection follows. Measured potencies and affinities stand elsewhere.
metric_name: displacement (%)

compound: Cc1ccc(-n2cccc2C(=S)N=P(N(C)C)(N(C)C)N(C)C)cc1
recorded_number: 22.3
--
compound: O=C1CCc2cc(S(=O)(=O)N3CCC(C(=O)NC4CCCc5ccccc54)CC3)ccc2N1 (stereo not drawn)
recorded_number: -5.6
--
compound: COC(=O)c1[nH]c2ccc(C)cc2c1NC(=O)CN1CCCCC1C (stereo not drawn)
recorded_number: -1.2
--
compound: COc1ccc(C(=O)N2CCN(c3nnnn3-c3ccccc3)CC2)cc1OC
recorded_number: 3.7
--
compound: CCCN(c1ccc(C(C)C)cc1)S(=O)(=O)c1c(C)noc1C
recorded_number: -2
--
compound: COc1ccc(NC(=O)C23CCC(C)(C(=O)C2)C3(C)C)cc1 (stereo not drawn)
recorded_number: -1.2
--
compound: Cc1cc(NC(=O)Nc2cccc3ccccc23)no1
recorded_number: -1.4
--
compound: Cn1c(=O)[nH]c(=O)c2c1nc(Br)n2Cc1ccccc1F
recorded_number: -3.5

----------
# assay_target: Bcl-2-related protein A1 (Mus musculus) (UniProt Q07440)
# Sequence (Q07440 whole entry, looked up): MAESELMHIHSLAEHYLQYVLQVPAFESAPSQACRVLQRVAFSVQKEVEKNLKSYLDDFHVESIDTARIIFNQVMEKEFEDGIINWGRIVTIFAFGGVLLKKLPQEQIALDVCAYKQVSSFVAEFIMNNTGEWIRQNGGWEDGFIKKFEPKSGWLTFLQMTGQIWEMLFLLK
# assay_explanation: displacement of Bid BH3 peptide from Bfl-1 – biochemical, fluorescence polarization, FITC-Bid, mouse, primary screen (AID 432)
# measurement_context: at 20 µM, active compounds read high
Screen size: about 64,000 compounds; about 15 (0.02%) were called active. The list is a sample of the results. Results with a measured potency or affinity are listed apart.
Listed compounds paired with reported displacement

compound: Cc1cc(Nc2c(C)cccc2C)n2nc(C)nc2n1
unit_label: %
displacement: -2.1

compound: O=C(Nc1ccc2c(c1)OCO2)c1cnn2c(C(F)(F)F)cc(-c3ccco3)nc12
unit_label: %
displacement: 1

compound: COc1ccc(-c2cc(C(F)(F)F)nc(NC3CCCC3)n2)cc1OC
unit_label: %
displacement: -2.6

compound: Oc1ccc(C=Nc2cccc3ncccc23)c(O)c1
unit_label: %
displacement: 4.8

compound: CC(C)OCCCNC(=O)c1sc(=S)n(C)c1N
unit_label: %
displacement: 10.9

compound: COC(=O)c1ccc(NC(=O)C2C3C=CC(O3)C2C(=O)O)cc1 (configuration not stated)
unit_label: %
displacement: 1.3

compound: COc1ccc(NC(=O)c2cnn3c(C(F)(F)F)cc(-c4ccco4)nc23)cc1OC
unit_label: %
displacement: 12
